Molecular target: Proteasome subunit beta (Trypanosoma cruzi)
Sequence (whole entry): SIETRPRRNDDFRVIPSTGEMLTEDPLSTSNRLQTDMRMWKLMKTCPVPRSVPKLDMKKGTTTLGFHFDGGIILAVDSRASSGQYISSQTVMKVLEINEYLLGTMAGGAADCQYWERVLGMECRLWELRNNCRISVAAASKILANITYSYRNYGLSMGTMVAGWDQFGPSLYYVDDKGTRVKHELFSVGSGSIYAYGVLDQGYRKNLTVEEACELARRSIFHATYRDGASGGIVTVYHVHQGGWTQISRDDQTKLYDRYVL
Experiment: Trypanosoma cruzi proteasome chymotrypsin-like activity (TcProtChymo) assay.
Assay type: functional
Design: scale not given: in the data most compounds retested in dose-response had high values
Conditions: 9.37 µM
# Percent Effect values compiled below
measuredAttribute: Percent Effect (%)

In [3]: df
Out[3]:
                                    compound  recordedresult
 0  O=c1[nH]c2nc(N3CCSCC3)ncc2c(=O)n1-c1cccc(F)c1            15.4
 1  Cc1ccc(-c2nc(CNC3CCc4ncnn4C3)co2)c(C)c1 (stereo unspecified)            7.09
 2  CC(=O)N1CCCCC1c1nc(N)ncc1-c1ccccc1 (stereo unspecified)            6.78
 3         Cc1nc(N2CCCCC2)ncc1-c1cc(O)[nH]n1            6.65
 4  O=C(O)[C@]12CCCN(Cc3ccccc3)C[C@H]1CN(c1ncccn1)C2            9.91
 5             Cc1nc(CN2CCc3ncnc(C)c3CC2)cs1            10.3
 6  COc1ccccc1Oc1ncccc1CNC(=O)[C@@H](C)NC(C)=O          -0.526
 7  O=C(c1cccc2c1OCO2)N1CCCC(n2cccn2)C1 (stereo unspecified)            8.29
 8  Cc1nn(C)c(C)c1C1CCCN1Cc1noc(C2CC2)n1 (stereo unspecified)            15.5
 9  Cc1ccc(CC(=O)N2CCOC(c3nc(C)n[nH]3)C2)cn1 (stereo unspecified)            5.96
10  CN(C)CCNC(=O)CNC(=O)N1CCc2c([nH]c3ccc(Cl)cc23)C1           0.185

Reference source: ChEMBL document CHEMBL3988442
